The values you see were collected from patent US5157019A.

TGT: C1s (Homo sapiens, UniProt P09871)
Construct: prepared from pooled human plasma; from tissue; host or cells: pooled human plasma
Sequence (P09871 16-688): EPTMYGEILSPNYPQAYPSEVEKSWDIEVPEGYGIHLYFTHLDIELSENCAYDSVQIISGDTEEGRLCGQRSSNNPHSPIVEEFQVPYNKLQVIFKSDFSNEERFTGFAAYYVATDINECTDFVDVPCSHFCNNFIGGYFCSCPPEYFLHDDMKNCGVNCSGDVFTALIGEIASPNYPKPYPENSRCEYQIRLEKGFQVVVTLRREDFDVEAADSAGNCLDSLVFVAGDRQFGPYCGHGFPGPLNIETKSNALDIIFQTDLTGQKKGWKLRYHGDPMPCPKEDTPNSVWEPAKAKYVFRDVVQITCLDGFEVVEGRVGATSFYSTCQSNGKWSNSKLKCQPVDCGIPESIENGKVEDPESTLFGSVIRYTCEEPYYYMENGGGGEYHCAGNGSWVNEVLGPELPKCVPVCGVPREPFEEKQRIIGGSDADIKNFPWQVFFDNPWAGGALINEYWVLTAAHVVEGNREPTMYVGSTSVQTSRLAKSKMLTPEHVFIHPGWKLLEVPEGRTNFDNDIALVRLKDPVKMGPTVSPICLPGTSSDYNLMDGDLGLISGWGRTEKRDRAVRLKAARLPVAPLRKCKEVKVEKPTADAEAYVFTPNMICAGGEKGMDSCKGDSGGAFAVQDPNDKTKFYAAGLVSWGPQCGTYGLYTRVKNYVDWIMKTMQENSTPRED
EXPERIMENT_SUMMARY: C1s assay by inhibition of fluid phase C4 activation
Assay type: biochemical
CONDITIONS: Tables VI and VIII, % 50; read-out: C1s, μM concentration listed for 50 % inhibition
Ends that are not written are not given here.
# reported IC50; entries follow
Numbers only; they are read as µM.

// solved cases for IC50 follow
PNRVTFKANRPFLVFI [Peptide 2]; 34
RVTFKANRPFLVFIREVPLNTIIFLGRVANP [Peptide 21]; 6
VKFNKPFVFLLIEQNTKSPLFLGKVVNPTQK [Peptide 20]; 12
IVRFNRPFLLII [Peptide 3]; 55

With those in mind, consider the next sequence.
Quick one: IC50 of IVRFNRPFLLIIVPTDTQNIFFLSKVTNPSKPR [Peptide 22] ?
6
